Test: self-splicing fitness, log relative to wild type (ln ratio); higher = more splicing; Tetrahymena group I intron in knt gene, E. coli kanamycin selection, DiMSum; sequences stand for … in CUCUCU…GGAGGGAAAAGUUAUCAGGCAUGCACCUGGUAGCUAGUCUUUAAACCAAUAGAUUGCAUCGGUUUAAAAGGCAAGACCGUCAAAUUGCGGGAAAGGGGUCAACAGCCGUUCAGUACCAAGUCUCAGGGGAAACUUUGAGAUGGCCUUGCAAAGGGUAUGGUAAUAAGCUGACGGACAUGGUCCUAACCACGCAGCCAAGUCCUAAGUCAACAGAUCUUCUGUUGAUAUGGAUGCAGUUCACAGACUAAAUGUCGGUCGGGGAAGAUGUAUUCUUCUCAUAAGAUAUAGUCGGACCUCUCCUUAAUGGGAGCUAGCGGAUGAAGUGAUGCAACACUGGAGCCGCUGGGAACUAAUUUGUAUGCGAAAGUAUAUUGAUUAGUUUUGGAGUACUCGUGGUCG;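 note: selection with 25 µg/mL kanamycin versus none on LB agar overnight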
Settings: 37 °C
endpoint_name: self-splicing fitness (ln)
No unit in the answer, please; the number alone is enough.

Would you please look over these solved cases?
1. AAUUAGCAAUAUUACGGAAU = -0.461
2. UGCGAGCAAUAUUACGAACG = -1.05
3. GAGCAGCAAUAUUACGCUGU = -2.52
4. ACCUAGCAAUAUUACGCAUU = -0.377

The reported value for GCUAAGCAAUAUUACGCAGU in terms of self-splicing fitness (ln) is -2.88

Lab note: measured self-splicing fitness (ln) of GACCAGCAAUAUUACGUUUG was -1.42

For this sequence ( UCUGAGCAAUAUUACGAAAG ), measured self-splicing fitness (ln) is -1.71

Looking up GAGCAGCAAUAUUACGACCA , I found its self-splicing fitness (ln) recorded as -1.02

The sequence UUAGAGCAAUAUUACGUGAU showed self-splicing fitness (ln) equal to -2.52

For UUUUAGCAAUAUUACGAGUG the sequence record lists self-splicing fitness (ln) as -1.26

Documented self-splicing fitness (ln) of UAUCAGCAAUAUUACGCUUG : 0.0735

Item: ACAGAGCAAUAUUACGUCAU | self-splicing fitness (ln): -2.75

Data point: UUACAGCAAUAUUACGGAAC ; self-splicing fitness (ln) = -1.88

Looking up AUAAAGCAAUAUUACGUCCG , I see its self-splicing fitness (ln) listed as 0.106

Memo: UGACAGCAAUAUUACGUGCG , reported self-splicing fitness (ln): -0.119

Lab note: CGGAAGCAAUAUUACGCUGC gave self-splicing fitness (ln) of -1.78

Data point: AGCCAGCAAUAUUACGCGGC ; self-splicing fitness (ln) = -3.42

Noted for ACGGAGCAAUAUUACGGGAA : its self-splicing fitness (ln) reads -2.03

Noted for AUUCAGCAAUAUUACGCAUA : its self-splicing fitness (ln) reads -1.07

Briefly, self-splicing fitness (ln) measured for GACCAGCAAUAUUACGGACU : -0.595

Reported self-splicing fitness (ln) ( ACGGAGCAAUAUUACGACAC ) = -1.94

So for GGCGAGCAAUAUUACGUGAG , the logged self-splicing fitness (ln) turned out to be -2.57

---

Quick reference: self-splicing fitness (ln) of the listed items.
Assay: self-splicing fitness, log relative to wild type (ln ratio); higher = more splicing; Tetrahymena group I intron in knt gene, E. coli kanamycin selection, DiMSum; sequences stand for … in CUCUCU…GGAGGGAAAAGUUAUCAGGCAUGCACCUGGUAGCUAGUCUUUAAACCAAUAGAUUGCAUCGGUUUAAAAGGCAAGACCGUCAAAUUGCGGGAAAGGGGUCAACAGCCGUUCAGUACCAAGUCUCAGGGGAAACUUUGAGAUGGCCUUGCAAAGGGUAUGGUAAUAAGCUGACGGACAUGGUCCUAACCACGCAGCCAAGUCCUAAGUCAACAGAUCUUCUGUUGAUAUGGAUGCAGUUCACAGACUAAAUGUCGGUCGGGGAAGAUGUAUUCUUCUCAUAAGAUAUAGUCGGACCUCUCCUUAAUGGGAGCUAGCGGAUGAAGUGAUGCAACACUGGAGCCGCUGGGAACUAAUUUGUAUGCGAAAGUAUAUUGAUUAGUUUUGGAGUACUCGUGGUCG
Settings: 37 °C
# respond with the number and nothing more

Past entries and their recorded results:
1) CGCGAGCAAUAUUACGUAUU = -2.6
2) UCACAGCAAUAUUACGUUCA = -0.438
3) UGCAAGCAAUAUUACGUCUA = 0.371
4) UAGAAGCAAUAUUACGAUUU = -1.11
5) ACCAAGCAAUAUUACGUGGA = -1.49
6) UUGCAGCAAUAUUACGUCCC = -1.44
7) AACUAGCAAUAUUACGUCUG = -1.37
8) CCAAAGCAAUAUUACGACCU = -3.23

The sequence listed as AUUCAGCAAUAUUACGACCA has a reported self-splicing fitness (ln) of 0.501

Reported self-splicing fitness (ln) for GACAAGCAAUAUUACGCUUA was -0.863

Briefly, self-splicing fitness (ln) measured for GUAAAGCAAUAUUACGUUAA : -1.69

Value of measured self-splicing fitness (ln) for the entry AAGAAGCAAUAUUACGACCG : 0.483

# self-splicing fitness (ln) (sequence: AGUGAGCAAUAUUACGCUUC ) is -2.7

In plain terms, ACAGAGCAAUAUUACGAUUC has a documented self-splicing fitness (ln) of -1.72

---

Experiment: self-splicing fitness, log relative to wild type (ln ratio); higher = more splicing; Tetrahymena group I intron in knt gene, E. coli kanamycin selection, DiMSum; sequences stand for … in CUCUCU…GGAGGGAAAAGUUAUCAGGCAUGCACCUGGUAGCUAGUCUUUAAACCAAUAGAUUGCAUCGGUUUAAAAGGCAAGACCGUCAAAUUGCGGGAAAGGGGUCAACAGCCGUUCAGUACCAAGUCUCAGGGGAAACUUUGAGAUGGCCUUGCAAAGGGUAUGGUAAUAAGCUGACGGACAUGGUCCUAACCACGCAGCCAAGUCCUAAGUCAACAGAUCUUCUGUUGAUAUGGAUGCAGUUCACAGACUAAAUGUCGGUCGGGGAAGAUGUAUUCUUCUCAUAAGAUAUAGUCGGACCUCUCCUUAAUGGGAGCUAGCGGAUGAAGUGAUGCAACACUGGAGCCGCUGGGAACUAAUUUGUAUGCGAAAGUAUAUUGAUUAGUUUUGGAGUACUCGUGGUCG
Conditions: 37 °C
In this section, each of the sequences is paired with its reported self-splicing fitness (ln).
Number, no unit, nothing else.

Reference set, count: 5
1. UUUGAGCAAUAUUACGCCGA = -1.61
2. CUCGAGCAAUAUUACGCGUA = -1.59
3. GGGGAGCAAUAUUACGCGCA = -1.32
4. UGCAAGCAAUAUUACGGGUC = -2.11
5. AAAUAGCAAUAUUACGCCAC = -2.18

Please turn your attention to the following entry.
Record CUUCAGCAAUAUUACGAGAG , field self-splicing fitness (ln): -1.79

---

Experiment: self-splicing fitness, log relative to wild type (ln ratio); higher = more splicing; Tetrahymena group I intron in knt gene, E. coli kanamycin selection, DiMSum; sequences stand for … in CUCUCU…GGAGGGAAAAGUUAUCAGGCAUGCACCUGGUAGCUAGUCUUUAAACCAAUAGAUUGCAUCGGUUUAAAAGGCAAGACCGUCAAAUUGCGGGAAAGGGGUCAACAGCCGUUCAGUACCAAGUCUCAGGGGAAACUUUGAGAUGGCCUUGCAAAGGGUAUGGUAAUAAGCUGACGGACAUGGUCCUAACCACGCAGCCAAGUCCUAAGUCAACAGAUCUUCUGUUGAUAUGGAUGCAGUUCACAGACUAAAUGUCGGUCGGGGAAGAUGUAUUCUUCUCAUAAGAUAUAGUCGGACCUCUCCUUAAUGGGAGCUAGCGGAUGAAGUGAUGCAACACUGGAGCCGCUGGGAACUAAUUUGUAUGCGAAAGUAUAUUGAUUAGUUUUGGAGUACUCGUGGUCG
Settings: 37 °C
Collected self-splicing fitness (ln) values appear next to each entry.
Lab note: jot the number down without any unit.

Please review the entries below; each comes with its answer.
1. UUCCAGCAAUAUUACGUAAC = -2.08
2. AUCAAGCAAUAUUACGAAAU = -1.04
3. CACGAGCAAUAUUACGAGAC = -1.89
4. UGCGAGCAAUAUUACGCCUU = -1.7
5. UAGGAGCAAUAUUACGAAUG = -0.141
6. GCCAAGCAAUAUUACGACAA = -3.04
7. UAGAAGCAAUAUUACGUGGC = -3.09
8. UUUCAGCAAUAUUACGCAUA = -0.691

Value of self-splicing fitness (ln) reported for the sequence CUUAAGCAAUAUUACGAUUC is -2.07

Field self-splicing fitness (ln) (entry UUGUAGCAAUAUUACGGUCU ) reads -1.53

For GGGUAGCAAUAUUACGUCAG the sequence record lists self-splicing fitness (ln) as -0.355

Lab note: AACUAGCAAUAUUACGUUUA gave self-splicing fitness (ln) of -1.1
